- Measured on: TylF (Streptomyces fradiae, UniProt Q9S4D5, Y139F)
- Sequence (Q9S4D5 whole entry Y139F): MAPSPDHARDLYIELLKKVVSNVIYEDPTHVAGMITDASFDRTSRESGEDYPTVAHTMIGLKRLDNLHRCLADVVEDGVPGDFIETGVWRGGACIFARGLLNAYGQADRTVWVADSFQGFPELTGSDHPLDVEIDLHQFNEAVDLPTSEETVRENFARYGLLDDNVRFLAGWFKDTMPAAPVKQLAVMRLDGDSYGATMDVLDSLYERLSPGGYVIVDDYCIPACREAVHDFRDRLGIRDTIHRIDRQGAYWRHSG
- Measurement description: biochemical
Measurement label: pKd
In plain terms, pKd is the concentration in mol/L turned into minus its base-10 logarithm.

## Input I'd like to know its pKd. The compound in question is C[S+](CC[C@H](N)C(=O)O)C[C@H]1O[C@@H](n2cnc3c(N)ncnc32)[C@H](O)[C@@H]1O (stereo partly shown)
## Output 3.58

----------
- Measured on: TylF (Streptomyces fradiae, UniProt Q9S4D5)
- Sequence (Q9S4D5 whole entry): as the sequence (Q9S4D5 whole entry Y139F) above, with F139Y counted along it
Measurement label: Kd (µM)
Only the number, expressed in µM, is required.

## Input Query Kd on TylF (Streptomyces fradiae, UniProt Q9S4D5) for C[S+](CC[C@H](N)C(=O)O)C[C@H]1O[C@@H](n2cnc3c(N)ncnc32)[C@H](O)[C@@H]1O (stereo partly shown)
## Output 162
